Tested on: S. aureus Russell
Structures can show the parent of a compound that is named as a salt.
Measurement Type: MIC

Observe how each entry below is paired with its result.
| Compound | System | MIC |
| --- | --- | --- |
| CO[C@@]1(NC(=O)C(c2ccc(O)cc2)S(=O)(=O)O)C(=O)N2[C@@H](C(=O)O)C(C)(C)S[C@@H]21 (stereo partly drawn) | S. aureus Russell | > 100 µg/mL |
| CO[C@@]1(NC(=O)C(c2ccccc2)P(=O)(O)OC)C(=O)N2[C@@H](C(=O)O)C(C)(C)S[C@@H]21 (stereo partly drawn) [Example 6, disodium salt] | S. aureus Russell | > 500 µg/mL |

Let's switch to this compound now.
Query string: Which measured MIC value corresponds to CO[C@@]1(NC(=O)C(c2ccc(N)cc2)S(=O)(=O)O)C(=O)N2[C@@H](C(=O)O)C(C)(C)S[C@@H]21 (stereo partly drawn) ?
Result string: > 100 µg/mL
